Please provide measured Potency (μM) Cell Viability for the entries that follow.
# System: N2a-cl3 cells
# Conditions: mouse

// worked examples, Potency (μM) Cell Viability included
Nc1c(/N=N/c2ccc(-c3ccc(/N=N/c4cc(S(=O)(=O)O)c5ccccc5c4N)cc3)cc2)cc(S(=O)(=O)O)c2ccccc12 = >10 µM
COc1ccccc1OCCNCC(O)COc1cccc2[nH]c3ccccc3c12 (centres unmarked) = 6.096 µM
CN1C[C@H](C(=O)N[C@]2(C)O[C@@]3(O)[C@@H]4CCCN4C(=O)[C@H](Cc4ccccc4)N3C2=O)C[C@@H]2c3cccc4[nH]cc(c34)C[C@H]21 [Dihydroergotamine] = >10 µM
CCCCc1oc2ccccc2c1C(=O)c1cc(I)c(OCCN(CC)CC)c(I)c1 = >10 µM

# ---- query molecule ----
For reference, reported Potency (μM) Cell Viability for "CC(=O)c1ccc2c(c1)N(CCCN(C)C)c1ccccc1S2" stands at >10 µM

====

# Experiment summary: Hepatic microsome stability, human
# Assay type: in vitro ADME
# Conditions: human liver microsomes
Property: hepatic extraction ratio (ER)

COc1ccc(-c2csc(Nc3ccc4ccccc4n3)n2)cc1OC = lower to moderate
c1ccc2cc(Nc3nc(-c4ccncc4)cs3)ncc2c1 = higher
Cc1ccnc(Nc2nc(-c3ccncc3)cs2)c1 = higher
Cc1ccc(Nc2nc(-c3cc(-c4ccccc4)no3)cs2)nc1 = lower to moderate

====

# Tested on: PrP^Sc in dividing ScN2a-cl3 cells
# Assay type: cell-based, mouse
# Conditions: ScN2a-cl3 dividing cells; 2nd determination; read-out: Dividing ELISA EC50 (μM) 2nd Expt.
Property: EC50 (µM)
Give bare numbers, in µM.

c1ccc2cc(Nc3nc(-c4ccncc4)cs3)ncc2c1 = 0.277

# ---- query compound ----
For reference, reported EC50 for "Cc1ccc(Nc2nc(-c3ccncc3)cs2)nc1" stands at 1.75

====

# Experiment summary: physchem
# Conditions: FaSSIF
Please provide measured log10 of solubility for the entries that follow.
Values are log10 of solubility in µM.

// worked examples, log10 of solubility included
COc1ccc(-c2csc(Nc3ccc4ccccc4n3)n2)cc1OC [IND47] = 0.70
Cc1cccc(Nc2nc(-c3cc4ccccc4o3)cs2)n1 [IND22] = 1.77
Cc1ccnc(Nc2nc(-c3ccncc3)cs2)c1 [IND52] = 0.30
Cc1ccc(Nc2nc(-c3cc(-c4ccccc4)no3)cs2)nc1 [IND33] = 1.85
Cc1ccnc(Nc2nc(-c3ccc(-c4ccccn4)s3)cs2)c1 [IND81] = 0.48
c1ccc2cc(Nc3nc(-c4ccncc4)cs3)ncc2c1 [IND85] = 0.48

For reference, reported log10 of solubility for COc1ccc(-c2csc(Nc3cc4ccccc4cn3)n2)cc1OC [IND46] stands at 0.70

====

# Experiment summary: Single-dose pharmacokinetics in FVB mice (oral gavage, IV)
# Conditions: female, FVB, mouse, plasma, iv, 1 mg/kg
Property: Tmax (min)
Numbers only, in min.

Would you mind listing Tmax for each of the following compounds?
1. Cc1cccc(Nc2nc(-c3ccc(-c4ccccc4)cc3)cs2)n1
2. Cc1ccnc(Nc2nc(-c3ccc(-c4ccccn4)s3)cs2)c1

[reply]
1. 4.98
2. 4.98

====

# Experiment summary: in vitro
# Conditions: mouse, 20% brain homogenate
Property: fraction unbound
Give bare numbers.

For reference, reported fraction unbound for "Cc1ccnc(Nc2nc(-c3ccc(-c4ccccn4)s3)cs2)c1" stands at 0.09
